Data provenance is patent US20230357348A1.

ASSAYED_SYSTEM: human GLP-1 receptor (hGLP-1R) (human, UniProt P43220 24-463)
ASSAY_PROCEDURE: cell-based or functional assay
Starred links: 1 amine or outer side, 2 acyl side, 3 side chain; linkers in the order of their positions; H or OH if unused. Non-standard residues stand in square brackets, D forms with d. Groups on a side chain read outwards from the residue. Primed or numbered codes have the meaning given here. No end group written: not given here. *: point of attachment. C20 diacid = O=C(O)CCCCCCCCCCCCCCCCCCC(=O)*; Dip = N[C@H](C(=O)O)C(c1ccccc1)c1ccccc1; γGlu = O=C(O)[C@H](CCC(=O)[*:2])N[*:1]; Stearoyl = CCCCCCCCCCCCCCCCCC(=O)*; Palmitoyl = CCCCCCCCCCCCCCCC(=O)*; αMeF = C[C@](N)(Cc1ccccc1)C(=O)O; Myristoyl = CCCCCCCCCCCCCC(=O)*; (PEG)2 = polyethylene glycol 2; PEG2′ = polyethylene glycol 2; AEEA = NCCOCCOCC(=O)O; Aib = CC(C)(N)C(=O)O
RECORDED_METRIC: hGLP-1R EC50 (pM)

Previously resolved entries follow.
H[Aib]QGS[αMeF]TSDVSKILDSK([PEG2′-PEG2′-γGlu-γGlu-Palmitoyl])AAQD[αMeF]VQ[Aib]IINT-NH2 [Peptide 125]; 0.575 pM
H[Aib]HGS[αMeF]TSDVSK[αMeF]LDSK([AEEA-AEEA-γGlu-γGlu-C20 diacid])AAQD[αMeF]VQ[Aib]IANT-NH2 [Peptide 25]; 726 pM

// for each binder below, give its hGLP-1R EC50 (pM)
1. HSQGS[αMeF]TSDVSK[Dip]LDSK([γGlu-(PEG)2-γGlu-(PEG)2-Stearoyl])AAQD[αMeF]VE[Aib]IINT-NH2 [Peptide 60]
2. HSQGS[αMeF]TSDVSKILDSK([PEG2′-PEG2′-γGlu-Myristoyl])AAQD[αMeF]VQ[Aib]IINT-NH2 [Peptide 122]
3. HSQGS[αMeF]TSDVSK[Dip]LDSK([(PEG)2-(PEG)2-γGlu-γGlu-Palmitoyl])AAQD[αMeF]VE[Aib]IINT-NH2 [Peptide 64]

["5.16 pM", "1.42 pM", "2.57 pM"]
